# STUDY_TARGET: Cyclin-dependent kinase 4/cyclin D1 (Homo sapiens, UniProt P11802)
# Sequence (P11802 whole entry): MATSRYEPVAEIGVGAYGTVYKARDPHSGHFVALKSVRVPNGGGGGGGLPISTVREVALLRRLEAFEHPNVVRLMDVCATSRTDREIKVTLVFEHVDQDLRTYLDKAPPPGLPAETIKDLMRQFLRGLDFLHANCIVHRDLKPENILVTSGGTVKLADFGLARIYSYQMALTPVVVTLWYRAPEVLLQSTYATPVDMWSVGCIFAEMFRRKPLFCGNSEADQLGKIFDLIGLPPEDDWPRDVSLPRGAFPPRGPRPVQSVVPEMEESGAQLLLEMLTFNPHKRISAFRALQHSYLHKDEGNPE
# Sequence (P24385 whole entry, further chain): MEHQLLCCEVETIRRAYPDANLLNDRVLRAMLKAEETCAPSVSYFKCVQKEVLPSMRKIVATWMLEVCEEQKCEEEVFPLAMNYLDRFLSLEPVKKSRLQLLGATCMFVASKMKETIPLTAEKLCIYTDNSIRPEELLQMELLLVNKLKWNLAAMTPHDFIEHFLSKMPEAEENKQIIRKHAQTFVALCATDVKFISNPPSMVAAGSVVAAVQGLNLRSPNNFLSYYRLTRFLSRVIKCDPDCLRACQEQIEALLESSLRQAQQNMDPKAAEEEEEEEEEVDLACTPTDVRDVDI
# PROCEDURE_TEXT: Inhibition of CDK4/Cyclin D1 expressed in Sf9 cells assessed as inhibition of Rb phosphorylation
pIC50: −log10 of the molar value.
ENDPOINT_LABEL: pIC50

CN(C)Cc1cccc(/C=N/Nc2ncnc3sc(C(C)(C)C)cc23)c1 : 7.15
CC(C)(C)c1cc2c(N/N=C/c3ccc(CN)cc3)ncnc2s1 : 7.21
CC(C)(C)c1cc2c(N/N=C/c3ccc4c(c3)CNC4)ncnc2s1 : 6.63

a = CC(C)(C)c1cc2c(N/N=C/c3ccc(CO)cc3)ncnc2s1
b = CN(CCO)Cc1ccc(/C=N/Nc2ncnc3sc(C(C)(C)C)cc23)cc1
c = CN(C)Cc1ccc(/C=N/Nc2ncnc3sc(C(C)(C)C)cc23)cc1
d = CC(C)(C)c1cc2c(N/N=C/c3ccc(C(=O)O)cc3)ncnc2s1
stdin: Order the records, beginning with the lowest pIC50 and ending with the highest. List the labels, following the order given in the request.
stdout: d, a, c, b

---

# STUDY_TARGET: Cyclin-dependent kinase 4/cyclin D1 (Homo sapiens)
# PROCEDURE_TEXT: Inhibition of CDK4/Cyclin D1 expressed in Sf9 cells assessed as inhibition of Rb phosphorylation
pIC50: −log10 of the molar value.
ENDPOINT_LABEL: pIC50

Some molecules with recorded pIC50:
CN1Cc2ccc(/C=N/Nc3ncnc4sc(C(C)(C)C)cc34)cc2C1 : 6.58
CN(C)Cc1cccc(/C=N/Nc2ncnc3sc(C(C)(C)C)cc23)n1 : 6.82
CC(C)(C)c1cc2c(N/N=C/c3ccc4c(c3)CCNC4)ncnc2s1 : 6.98

A = CC(C)(C)c1cc2c(N/N=C/c3ccccc3)ncnc2s1
B = CC(C)N1Cc2ccc(/C=N/Nc3ncnc4sc(C(C)(C)C)cc34)cc2C1
stdin: Which entry has a larger number for pIC50, A or B ? Answer by quoting the chosen item's label.
stdout: B

---

# Test system: HCT-116
# PROCEDURE_TEXT: Cytotoxicity against human HCT116 cells after 3 days by MTT assay
# Type: functional, cell-based
# CONDITION_LABEL: HCT-116, 72 h
ENDPOINT_LABEL: IC50 (µg/mL)
Express your answer in µg/mL, writing the number without its unit.

CC(C)(C)c1cc2c(N/N=C/c3ccc4c(c3)CCNC4)ncnc2s1 : 0.046
CN(CCO)Cc1ccc(/C=N/Nc2ncnc3sc(C(C)(C)C)cc23)cc1 : 0.169
CNCc1ccc(/C=N/Nc2ncnc3sc(C(C)(C)C)cc23)cc1 : 0.056
CN(C)Cc1ccc(/C=N/Nc2ncnc3sc(C(C)(C)C)cc23)cc1 : 0.128
CC(C)(C)c1cc2c(N/N=C/c3ccc4c(c3)CNCC4)ncnc2s1 : 0.107

--- query ---
stdin: Could you share which IC50 value was measured for CC(C)(C)c1cc2c(N/N=C/c3ccc(O)cc3)ncnc2s1 ?
stdout: 0.844

---

# STUDY_TARGET: Cyclin-dependent kinase 2/cyclin E1 (Homo sapiens, UniProt P24941)
# PROCEDURE_TEXT: Inhibition of CDK2/Cyclin E expressed in Sf9 cells assessed as inhibition of Rb phosphorylation
pIC50: −log10 of the molar value.
ENDPOINT_LABEL: pIC50

CC(C)(C)c1cc2c(N/N=C/c3ccc4c(c3)CCNC4)ncnc2s1 : 5.76
CNCc1ccc(/C=N/Nc2ncnc3sc(C(C)(C)C)cc23)cc1 : 5.72

A = CN(C)S(=O)(=O)c1ccc(/C=N/Nc2ncnc3sc(C(C)(C)C)cc23)cc1
B = CC(C)N1Cc2ccc(/C=N/Nc3ncnc4sc(C(C)(C)C)cc34)cc2C1
stdin: Given the two records A and B , choose the one whose pIC50 value is lower. Answer by quoting the chosen item's label.
stdout: B

---

# PROCEDURE_TEXT: Selectivity for CDK4/Cyclin D1 over CDK2/Cyclin E
ENDPOINT_LABEL: Selectivity ratio

CN(C)Cc1cccc(/C=N/Nc2ncnc3sc(C(C)(C)C)cc23)c1 : 42.3
CN(C)Cc1cccc(/C=N/Nc2ncnc3sc(C(C)(C)C)cc23)n1 : 25
CC(C)(C)c1cc2c(N/N=C/c3ccc(C(=O)O)cc3)ncnc2s1 : 0.4
CC(C)N1Cc2ccc(/C=N/Nc3ncnc4sc(C(C)(C)C)cc34)cc2C1 : 37.5

a = CC(C)(C)c1cc2c(N/N=C/c3ccc4c(c3)CNCC4)ncnc2s1
b = CC(C)(C)c1cc2c(N/N=C/c3ccc(CO)cc3)ncnc2s1
stdin: Given the two records a and b , choose the one whose Selectivity ratio value is lower. Answer by quoting the chosen item's label.
stdout: b
(b: 0.7, a: 5.3)

---

# STUDY_TARGET: Cyclin-dependent kinase 2/cyclin E1 (Homo sapiens)
# PROCEDURE_TEXT: Inhibition of CDK2/Cyclin E expressed in Sf9 cells assessed as inhibition of Rb phosphorylation
pIC50: −log10 of the molar value.
ENDPOINT_LABEL: pIC50

CC(C)(C)c1cc2c(N/N=C/c3ccc(CN)cc3)ncnc2s1 : 5.33
CN1Cc2ccc(/C=N/Nc3ncnc4sc(C(C)(C)C)cc34)cc2C1 : 5.56
CN(CCO)Cc1ccc(/C=N/Nc2ncnc3sc(C(C)(C)C)cc23)cc1 : 6.14
CC(C)(C)c1cc2c(N/N=C/c3ccc(CO)cc3)ncnc2s1 : 6.12
CC(C)(C)c1cc2c(N/N=C/c3ccc(C(=O)O)cc3)ncnc2s1 : 5.96

I = CN(C)Cc1cccc(/C=N/Nc2ncnc3sc(C(C)(C)C)cc23)n1
II = CC(C)(C)c1cc2c(N/N=C/c3ccc4c(c3)CNCC4)ncnc2s1
III = CN(C)Cc1ccc(/C=N/Nc2ncnc3sc(C(C)(C)C)cc23)cc1
IV = CC(C)(C)c1cc2c(N/N=C/c3ccc(O)cc3)ncnc2s1
stdin: Please give the order of these molecules when sorted by pIC50, largest value leading. List the labels, following the order given in the request.
stdout: II, III, I, IV
(II: 6.31, III: 5.79, I: 5.42, IV: 4.47)

---

# Tested on: HCT-116
# PROCEDURE_TEXT: Cytotoxicity against human HCT116 cells after 3 days by MTT assay
# Type: functional, cell-based
# CONDITION_LABEL: HCT-116, 72 h
ENDPOINT_LABEL: IC50 (µg/mL)
Express your answer in µg/mL, writing the number without its unit.

CC(C)N1Cc2ccc(/C=N/Nc3ncnc4sc(C(C)(C)C)cc34)cc2C1 : 0.206
CC(C)(C)c1cc2c(N/N=C/c3ccc(CO)cc3)ncnc2s1 : 0.665
CN(C)Cc1cccc(/C=N/Nc2ncnc3sc(C(C)(C)C)cc23)c1 : 0.405
CC(C)(C)c1cc2c(N/N=C/c3ccc(C(=O)O)cc3)ncnc2s1 : 9.99

--- query ---
stdin: Could you share which IC50 value was measured for CN1Cc2ccc(/C=N/Nc3ncnc4sc(C(C)(C)C)cc34)cc2C1 ?
stdout: 0.088

---

# Tested on: HCT-116
# PROCEDURE_TEXT: Cytotoxicity against human HCT116 cells after 3 days by MTT assay
# Format: functional, cell-based
# CONDITION_LABEL: HCT-116, 72 h
Listed compounds paired with reported IC50
Express your answer in µg/mL, writing the number without its unit.

Some compounds with recorded IC50:
CN(C)Cc1cccc(/C=N/Nc2ncnc3sc(C(C)(C)C)cc23)n1 : 0.419
CC(C)(C)c1cc2c(N/N=C/c3ccc(CN)cc3)ncnc2s1 : 0.334
CN(C)S(=O)(=O)c1ccc(/C=N/Nc2ncnc3sc(C(C)(C)C)cc23)cc1 : 1.42

--- query ---
stdin: Could you share which IC50 value was measured for CC(C)(C)c1cc2c(N/N=C/c3ccc4c(c3)CNC4)ncnc2s1 ?
stdout: 0.111

---

# STUDY_TARGET: Cyclin-dependent kinase 4/cyclin D1 (Homo sapiens)
# PROCEDURE_TEXT: Inhibition of CDK4/Cyclin D1 expressed in Sf9 cells assessed as inhibition of Rb phosphorylation
ENDPOINT_LABEL: IC50

Some compounds with recorded IC50:
CN(C)S(=O)(=O)c1ccc(/C=N/Nc2ncnc3sc(C(C)(C)C)cc23)cc1 : > 47.9 µM
CC(C)(C)c1cc2c(N/N=C/c3ccc(O)cc3)ncnc2s1 : > 61.3 µM
COC(=O)c1ccc(/C=N/Nc2ncnc3sc(C(C)(C)C)cc23)cc1 : > 54.3 µM

stdin: Query the reported IC50 for Cyclin-dependent kinase 4/cyclin D1 (Homo sapiens); item: CNCc1ccc(/C=N/Nc2ncnc3sc(C(C)(C)C)cc23)cc1
stdout: 0.107 µM

---

# PROCEDURE_TEXT: Selectivity for CDK4/Cyclin D1 over CDK2/Cyclin E
ENDPOINT_LABEL: Selectivity ratio

Some molecules with recorded Selectivity ratio:
CN(C)Cc1ccc(/C=N/Nc2ncnc3sc(C(C)(C)C)cc23)cc1 : 7.8
CC(C)(C)c1cc2c(N/N=C/c3ccc4c(c3)CCNC4)ncnc2s1 : 16.8
CN(CCO)Cc1ccc(/C=N/Nc2ncnc3sc(C(C)(C)C)cc23)cc1 : 10.4
CNCc1ccc(/C=N/Nc2ncnc3sc(C(C)(C)C)cc23)cc1 : 17.9

a = CN1Cc2ccc(/C=N/Nc3ncnc4sc(C(C)(C)C)cc34)cc2C1
b = CC(C)(C)c1cc2c(N/N=C/c3ccc(CN)cc3)ncnc2s1
stdin: Which entry has a larger number for Selectivity ratio, a or b ? Answer by quoting the chosen item's label.
stdout: b
